- Test system: 349418-098-R-PDC complex spheroid viability;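 further: spheroids exposed to agents for seven days before readout; 100% = DMSO vehicle control wells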
- experiment: Anticancer human tumor 349418-098-R-PDC patient-derived lung adenocarcinoma cell line growth inhibition
- particulars: second compound 0.316 µM; first compound 0.00949 µM; stronger effect = lower value
attribute-measured: viability, T/C

INSERT INTO assay_data (molecule, observed_value) VALUES
  ('CCN(c1cc(-c2ccc(CN3CCOCC3)cc2)cc(C(=O)NCc2c(C)cc(C)[nH]c2=O)c1C)C1CCOCC1 + NC1CC1c1ccc(-c2cccc(O)c2)cc1', '120%'),
  ('O=C(C=Cc1cccc(S(=O)(=O)Nc2ccccc2)c1)NO + NC1CC1c1ccc(-c2cccc(O)c2)cc1', '76.8%'),
  ('NS(=O)(=O)OCC1CC(n2ccc3c(NC4CCc5ccccc54)ncnc32)CC1O (configuration not stated) + NC1CC1c1ccc(-c2cccc(O)c2)cc1', '120%');

What value of measured viability, T/C is listed for COc1cc(C2c3cc4c(cc3C(OC3OC5COC(C)OC5C(O)C3O)C3COC(=O)C23)OCO4)cc(OC)c1O (configuration not stated) + NC1CCC(NC2CC2c2ccccc2)CC1 ?
91.9%

So what's the measured viability, T/C for this one? Nc1ncn(C2CC(O)C(CO)S2)c(=O)n1 (configuration not stated) + NC1CCC(NC2CC2c2ccccc2)CC1
71.6%

Look at this molecule and give its reported viability, T/C. Nc1ccccc1NC(=O)c1ccc(CNC(=O)OCc2cccnc2)cc1 + NC1CCC(NC2CC2c2ccccc2)CC1
102%

Can you share its viability, T/C? I mean this molecule: Nc1ccn(C2OC(CO)C(O)C2(F)F)c(=O)n1 (configuration not stated) + NC1CC1c1ccc(-c2cccc(O)c2)cc1
3.96%

Reference for the values: PubChem BioAssay AID1918936
